biological target: soluble guanylate cyclase (sGC) (Homo sapiens (Human), UniProt Q02108+Q02153); assay: sGC-HEK-cGMP assay run with SNP incubation (HEK WC assay); assay type: cell-based; settings: read-out: HEK WC Assay (% Emax at 30 μM with 10 uM SNP)
Sequence (Q02153 whole entry): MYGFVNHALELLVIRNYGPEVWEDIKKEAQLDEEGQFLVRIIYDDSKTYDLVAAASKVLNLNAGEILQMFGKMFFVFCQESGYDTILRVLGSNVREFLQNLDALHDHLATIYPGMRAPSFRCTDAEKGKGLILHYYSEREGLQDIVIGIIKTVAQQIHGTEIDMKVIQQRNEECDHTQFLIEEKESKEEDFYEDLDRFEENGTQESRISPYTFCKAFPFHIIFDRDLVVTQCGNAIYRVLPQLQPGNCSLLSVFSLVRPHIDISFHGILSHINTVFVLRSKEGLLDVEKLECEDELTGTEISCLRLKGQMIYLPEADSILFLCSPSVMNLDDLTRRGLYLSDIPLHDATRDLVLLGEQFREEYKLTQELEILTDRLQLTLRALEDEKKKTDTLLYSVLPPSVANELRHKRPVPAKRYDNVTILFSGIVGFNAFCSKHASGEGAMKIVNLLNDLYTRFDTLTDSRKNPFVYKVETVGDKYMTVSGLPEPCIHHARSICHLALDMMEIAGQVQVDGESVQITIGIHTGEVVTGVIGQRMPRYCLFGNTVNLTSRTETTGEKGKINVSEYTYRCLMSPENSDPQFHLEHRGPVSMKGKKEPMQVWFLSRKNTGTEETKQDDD
Sequence (Q02108 whole entry): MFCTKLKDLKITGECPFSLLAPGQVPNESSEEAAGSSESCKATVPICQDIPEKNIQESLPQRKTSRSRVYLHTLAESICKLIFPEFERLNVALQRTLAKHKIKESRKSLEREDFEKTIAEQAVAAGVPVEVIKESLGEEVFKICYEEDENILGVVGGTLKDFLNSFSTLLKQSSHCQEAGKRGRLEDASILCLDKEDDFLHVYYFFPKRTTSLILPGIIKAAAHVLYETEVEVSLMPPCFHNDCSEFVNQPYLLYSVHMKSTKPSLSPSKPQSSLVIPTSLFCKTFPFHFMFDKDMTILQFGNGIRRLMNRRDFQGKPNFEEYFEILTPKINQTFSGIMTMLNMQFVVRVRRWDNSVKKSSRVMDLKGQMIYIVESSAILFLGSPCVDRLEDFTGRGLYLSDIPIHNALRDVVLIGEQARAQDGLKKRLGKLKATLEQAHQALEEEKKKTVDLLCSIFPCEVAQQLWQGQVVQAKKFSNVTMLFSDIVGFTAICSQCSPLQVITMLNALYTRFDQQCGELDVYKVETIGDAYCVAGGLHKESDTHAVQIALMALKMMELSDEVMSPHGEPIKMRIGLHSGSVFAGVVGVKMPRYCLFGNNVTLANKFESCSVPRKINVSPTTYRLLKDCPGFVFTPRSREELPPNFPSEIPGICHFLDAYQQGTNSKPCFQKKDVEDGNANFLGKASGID
I'd be grateful if you could share measured Emax for these entries.

The cases that follow already have their Emax on record.
• Oc1ccnc(-c2cc(-c3ccon3)n(Cc3ccccc3F)n2)n1 = 40 to 60%
• Oc1ccccc1Cn1nc(-c2ncccn2)cc1-c1ccon1 = 0 to 10%
• Fc1ccccc1Cn1nc(-c2ccccn2)cc1-n1cccn1 = 10 to 20%
• Nc1nc(-c2cc(-c3ccon3)n(Cc3ccccc3F)n2)ncc1NC(=O)c1ccncc1 = 60 to 80%
• COc1ccc(CNc2nc(-c3cc(-c4ccon4)n(Cc4ccccc4F)n3)ncc2C(C)(C)O)cc1 = 10 to 20%

Moving on to another compound below.
[ask] Look up Emax: Nc1cnc(-c2cc(-c3ccon3)n(Cc3ccccc3F)n2)nc1
[reply] 60 to 80%
